target: AtDHBPS (Arabidopsis thaliana, UniProt P47924)
property-measured: IC50 (µM)

[[record]]
compound = "CC(=O)C(O)(CO)CP(=O)(O)O (stereo not shown) [phosphonothrixin]"
obs_value = 58


* * *

Biological target: UniProtKB F9X7Z9
Sequence (F9X7Z9 1-226): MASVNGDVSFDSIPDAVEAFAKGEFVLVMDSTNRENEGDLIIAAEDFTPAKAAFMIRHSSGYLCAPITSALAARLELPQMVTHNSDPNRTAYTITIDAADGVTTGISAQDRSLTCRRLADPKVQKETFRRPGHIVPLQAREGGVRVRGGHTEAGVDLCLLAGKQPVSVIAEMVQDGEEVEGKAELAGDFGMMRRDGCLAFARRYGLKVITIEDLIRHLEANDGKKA
property-measured: IC50

[[record]]
compound = "CC(=O)C(O)(CO)CP(=O)(O)O (stereo not shown) [phosphonothrixin]"
obs_value = "19 µM"

